Biological target: bovine trypsin (Bos taurus)
Sequence (P00760 24-246): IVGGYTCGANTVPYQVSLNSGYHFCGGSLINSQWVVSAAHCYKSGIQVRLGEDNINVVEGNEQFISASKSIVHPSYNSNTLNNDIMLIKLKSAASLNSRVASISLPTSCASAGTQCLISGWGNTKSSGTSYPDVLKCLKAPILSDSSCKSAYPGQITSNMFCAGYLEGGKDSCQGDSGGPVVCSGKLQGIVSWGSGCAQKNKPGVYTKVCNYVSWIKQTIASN
Assay: Trypsin inhibitory activity of peptides (BApNA hydrolysis, OD405; IC50, Ki, residual activity)
Type: biochemical
Settings: trypsin 50 nM, BApNA 1.22 mM; read-out: IC50
Description: The substrates N-succinyl-Ala-Ala-Pro-Phe-p-nitroaniline (AAPFpNA), Nα—Benzoyl-L-arginine-4-nitroaniline hydrochloride (BApNA) and N-succinyl-[…] (AAApNA) are used in competitive binding reaction to determine the inhibitory activities against α-chymotrypsin, bovine trypsin, and porcine pancreatic elastase, respectively. […] The concentration of the peptide was measured using optical density (OD) at 280 nm. […]
Bridge positions count the residues as written; N and C are the ends. Square brackets hold non-standard residues; d marks the D form. Peptide text beside a SMILES is read from it. Hyp = O=C(O)[C@@H]1C[C@@H](O)CN1
readout_label: IC50 (nM)
Give bare numbers, in nM.

Recorded IC50, per entry:
{"compound": "CC[C@H](C)[C@@H]1NC(=O)[C@H](CO)NC(=O)[C@H](CCCCN)NC(=O)[C@H]([C@@H](C)O)NC(=O)[C@@H](NC(=O)[C@@H](N)CCCNC(=N)N)CSSC[C@@H](C(=O)N[C@@H](Cc2ccccc2)C(=O)O)NC(=O)[C@H](Cc2c[nH]cn2)NC(=O)[C@@H]2CCCN2C(=O)[C@@H]2CCCN2C1=O [BT62] (H-RCTKSIPPHCF-OH; disulfide 2-10; N-terminus and C-terminus assumed)", "assay_system": "bovine trypsin (Bos taurus)", "endpoint_unit": "nM", "IC50": 70}
{"compound": "CC[C@H](C)[C@@H]1NC(=O)[C@@H]2CCCN2C(=O)[C@@H]2CCCN2C(=O)[C@H]([C@@H](C)CC)NC(=O)[C@H](CO)NC(=O)[C@H](CCCCN)NC(=O)[C@H]([C@@H](C)O)NC(=O)[C@H](C)NC(=O)[C@H](CCCNC(=N)N)NC(=O)[C@@H]2C[C@@H](O)CN2C(=O)[C@@H](N)CSSC[C@@H](C(=O)N[C@@H](Cc2ccccc2)C(=O)O)NC1=O [BT46] (H-C[Hyp]RATKSIPPICF-OH; disulfide 1-12; C-terminus assumed)", "assay_system": "bovine trypsin (Bos taurus)", "endpoint_unit": "nM", "IC50": 70}
{"compound": "CC[C@H](C)[C@@H]1NC(=O)[C@@H]2CCCN2C(=O)[C@@H]2CCCN2C(=O)[C@H]([C@@H](C)CC)NC(=O)[C@H](CO)NC(=O)[C@H](CCCCN)NC(=O)[C@H]([C@@H](C)O)NC(=O)[C@H](C)NC(=O)[C@H](CCCNC(=N)N)NC(=O)[C@H](CCC(N)=O)NC(=O)[C@@H](N)CSSC[C@@H](C(=O)N[C@@H](Cc2ccccc2)C(=O)O)NC1=O [BT79] (H-CQRATKSIPPICF-OH; disulfide 1-12; N-terminus and C-terminus assumed)", "assay_system": "bovine trypsin (Bos taurus)", "endpoint_unit": "nM", "IC50": 50}

Please turn your attention to the following entry.
Need IC50, item CC[C@H](C)[C@@H]1NC(=O)[C@@H]2CCCN2C(=O)[C@@H]2CCCN2C(=O)[C@H]([C@@H](C)CC)NC(=O)[C@H](CO)NC(=O)[C@H](CCCCN)NC(=O)[C@H]([C@@H](C)O)NC(=O)[C@H](CO)NC(=O)[C@H](CCCNC(=N)N)NC(=O)CNC(=O)[C@@H](N)CSSC[C@@H](C(=O)N[C@@H](Cc2ccccc2)C(=O)O)NC1=O [BT47] (H-CGRSTKSIPPICF-OH; disulfide 1-12; C-terminus assumed)
50
